meta.source: patent US7125990B2

Biological target: CRF1 receptors (Homo sapiens)
Construct: endogenous in cells; host or cells: IMR-32 cells, transformed with 2.5 µM 5'-bromo-2'-deoxyuridine for 10 days; membrane preparation
Test: CRF1 receptor radioligand binding assay ([125I]-oCRF competition, IMR-32 cell membranes)
Details: IMR-32 cell membranes, [125I]-oCRF 100 pM; read-out: Ki (CRF-1R)
ASSAY_METRIC: Ki

Some solved entries appear below for comparison.
CCCN(Cc1c(C(F)(F)F)nc2n(-c3ccc(Cl)cc3Cl)c3ccccc3n12)CC1CCC1
< 10000 nM
C=CCN(CCC)C(=O)c1c(CC)nc2n1CCN2c1c(C)cc(C)cc1C
< 1000 nM
CCCN(CC1CC1)C(=O)c1c(CC)nc2n1CCN2c1c(C)cc(C)cc1C
< 100 nM
CCCN(CC1CC1)C(=O)c1c(CC)nc2n(-c3ccc(C(C)C)cc3Br)c(Cl)cn12
< 1000 nM
CCCN(CC1CC1)C(=O)c1c(CC)nc2n1CCN2c1c(C)cc(Cl)cc1Cl
< 100 nM
CCc1nc2n(c1C(=O)N(CC1CC1)CC(F)(F)C(F)(F)F)CCN2c1c(C)cc(Cl)cc1Cl
< 100 nM
CCN(Cc1ccc(Cl)c(Cl)c1)Cc1c(C(F)(F)F)nc2n(-c3c(C)cc(C)cc3C)c(Cl)cn12
< 1000 nM
CCN(Cc1ccccc1)Cc1c(C(F)(F)F)nc2n(-c3c(C)cc(C)cc3C)c(Cl)cn12
< 1000 nM

Exercise: Input "Cc1cc(C)c(-n2c(Cl)cn3c(CN(CCC(F)(F)F)Cc4cccc(F)c4)c(C(F)(F)F)nc23)c(C)c1" , output reported Ki.
Solution: < 100 nM

Exercise: Name the recorded Ki of the compound listed here: "CCN(Cc1c(C(F)(F)F)nc2n(-c3c(C)cc(C)cc3C)c(Cl)cn12)CC1CCC1"
Solution: < 10 nM

Exercise: Answer with the recorded Ki for the compound listed here: "CCCN(CCc1ccccc1)Cc1c(C(F)(F)F)nc2n(-c3ccc(C(C)C)cc3Br)c3ccccc3n12"
Solution: < 1000 nM

Exercise: Answer with reported Ki of "CCCN(CCC(F)(F)F)Cc1c(C(F)(F)F)nc2n1CCCN2c1c(C)cc(C)cc1Cl"
Solution: < 1000 nM

Exercise: Give reported Ki value for "CCc1nc2n(c1C(=O)N(CCC(F)(F)F)CC1CC1)CCN2c1c(C)cc(C)cc1C"
Solution: < 100 nM

Exercise: Using the record for "C=C(C)CN(CC)Cc1c(C(F)(F)F)nc2n1CCCN2c1c(C)cc(C)cc1Cl" , state its measured Ki.
Solution: < 1000 nM

Exercise: Input "C=CCN(CC=C)C(=O)c1c(CC)nc2n(-c3c(C)cc(C)cc3C)c(Cl)cn12" , output reported Ki.
Solution: < 1000 nM

Exercise: Please report the measured Ki for "CCCN(CC1CC1)C(=O)c1c(C(F)(F)F)nc2n1CCCN2c1c(C)cc(C)cc1C"
Solution: < 10000 nM

* * *

Biological target: CRF1 receptors (Homo sapiens, UniProt P34998)
Construct: endogenous in cells; host or cells: IMR-32 cells, transformed with 2.5 µM 5'-bromo-2'-deoxyuridine for 10 days; membrane preparation
Sequence (P34998 24-415): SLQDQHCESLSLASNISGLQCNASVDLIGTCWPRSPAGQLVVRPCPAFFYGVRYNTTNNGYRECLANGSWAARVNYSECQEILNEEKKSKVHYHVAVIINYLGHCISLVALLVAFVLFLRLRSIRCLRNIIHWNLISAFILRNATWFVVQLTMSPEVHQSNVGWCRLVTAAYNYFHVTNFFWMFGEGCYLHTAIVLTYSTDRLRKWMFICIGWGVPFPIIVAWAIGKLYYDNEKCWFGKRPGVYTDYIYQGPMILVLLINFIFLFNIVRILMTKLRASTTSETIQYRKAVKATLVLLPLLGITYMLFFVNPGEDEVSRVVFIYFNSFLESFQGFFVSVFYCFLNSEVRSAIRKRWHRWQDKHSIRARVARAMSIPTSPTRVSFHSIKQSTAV
Assay: CRF1 receptor radioligand binding assay ([125I]-oCRF competition, IMR-32 cell membranes)
Settings: IMR-32 cell membranes, [125I]-oCRF 100 pM; read-out: Ki (CRF-1R)
ASSAY_METRIC: Ki

Cc1cc(C)c(-n2c3ncccc3n3c(CN(CC4CC4)CC(F)(F)C(F)(F)F)c(C(F)(F)F)nc23)c(C)c1
< 0.1 µM
CCc1nc2n(-c3c(C)cc(C)cc3C)c(Cl)cn2c1C(=O)N(CC1CC1)CC(F)(F)F
< 0.01 µM
CCCN(Cc1ccccc1)Cc1c(C(F)(F)F)nc2n(-c3c(C)cc(C)cc3C)c3ncccc3n12
< 10 µM
CCCC(CCC)c1c(CC)nc2n1CCN2c1c(C)cc(C)cc1C
< 1 µM
CCc1nc2n(c1C(=O)N(CCC(F)(F)F)Cc1ccc(Cl)cc1)CCN2c1c(C)cc(C)cc1C
< 1 µM

Exercise: Tell me its Ki given "CCCN(Cc1c(C(F)(F)F)nc2n(-c3c(C)cc(C)cc3C)c(Cl)cn12)CC1CC1" as the entry.
Solution: < 0.01 µM

Exercise: Please give measured Ki of the following entry: "FC(F)(F)CN(Cc1c(C(F)(F)F)nc2n(-c3ccc(Cl)cc3Cl)c3ccccc3n12)CC1CC1"
Solution: < 1 µM

Exercise: For the compound "CCCN(CCC)Cc1c(C(F)(F)F)nc2n1CCCN2c1c(C)cc(C)cc1C" , give its reported Ki.
Solution: < 1 µM

Exercise: Supply recorded Ki for "CCCN(Cc1cccc(F)c1)Cc1c(C(F)(F)F)nc2n(-c3c(C)cc(C)cc3C)c(Cl)cn12" here.
Solution: < 1 µM

Exercise: Provide only the value of recorded Ki for "CCCN(Cc1ccc(Cl)cc1)Cc1c(C(F)(F)F)nc2n1CCCN2c1c(C)cc(C)cc1C"
Solution: < 1 µM

Exercise: Please report Ki for the following compound: "CCCN(Cc1c(C(F)(F)F)nc2n(-c3ccc(C(C)C)cc3Br)c3ccccc3n12)CC(F)(F)F"
Solution: < 10 µM

Exercise: Complete the entry with Ki for "CCCN(Cc1c(C(F)(F)F)nc2n1CCCN2c1c(C)cc(C)cc1Cl)CC(F)(F)F"
Solution: < 1 µM

Exercise: Return Ki (reported value) for this compound: "CCc1nc2n(-c3c(C)cc(C)cc3C)c3ncccc3n2c1CN(CC)CCc1ccccc1"
Solution: < 0.1 µM

Exercise: Specify Ki for "CCc1nc2n(c1C(=O)N(CC1CC1)CC(F)(F)C(F)(F)F)CCN2c1ccc(C(C)C)cc1Br" and stop.
Solution: < 1 µM

Exercise: Read off the recorded Ki for "CCCN(Cc1c(C(F)(F)F)nc2n1CCCN2c1c(C)cc(C)cc1Cl)CC1CC1"
Solution: < 0.1 µM

Exercise: Return Ki (reported value) for this compound: "CCN(Cc1c(C(F)(F)F)nc2n1CCCN2c1c(C)cc(C)cc1C)CC1CC1"
Solution: < 0.1 µM

* * *

Biological target: CRF1 receptors (Homo sapiens, UniProt P34998)
Construct: endogenous in cells; host or cells: IMR-32 cells, transformed with 2.5 µM 5'-bromo-2'-deoxyuridine for 10 days; membrane preparation
Assay: CRF1 receptor radioligand binding assay ([125I]-oCRF competition, IMR-32 cell membranes)
Details: IMR-32 cell membranes, [125I]-oCRF 100 pM; read-out: Ki (CRF-1R)
pKi: −log10 of the molar value.
Parameter pKi: see the listing below.

CCCN(CC1CC1)C(=O)c1c(CC)nc2n(-c3c(C)cc(C)cc3C)c(Cl)cn12 [Example 290]
> 7.00
CCCN(Cc1ccc(Cl)cc1)Cc1c(C(F)(F)F)nc2n1CCCN2c1c(C)cc(C)cc1Cl [Example 129]
> 6.00
Cc1cc(C)c(-n2c(Cl)cn3c(CN(CCC(F)(F)F)Cc4ccccc4)c(C(F)(F)F)nc23)c(C)c1 [Example 327]
> 7.00
CCCN(CCc1ccccc1)Cc1c(C(F)(F)F)nc2n(-c3ccc(Cl)cc3Cl)c3ccccc3n12 [Example 182]
> 5.00
CCc1nc2n(-c3c(C)cc(C)cc3C)c(Cl)cn2c1CN(CC)CC1CC1 [Example 299]
> 7.00
CCCN(Cc1c(C(F)(F)F)nc2n(-c3ccc(C(C)C)cc3Br)c3ccccc3n12)CC(F)(F)C(F)(F)F [Example 205]
> 5.00
CCCCN(Cc1ccccc1)Cc1c(C(F)(F)F)nc2n(-c3c(C)cc(C)cc3C)c3ccccc3n12 [Example 176]
> 5.00
Cc1cc(C)c(-n2c3ncccc3n3c(CN(CCc4ccccc4)CCC(F)(F)F)c(C(F)(F)F)nc23)c(C)c1 [Example 226]
> 6.00

Exercise: # return recorded pKi for input Cc1cc(C)c(N2CCCn3c2nc(C(F)(F)F)c3CN(CCC2CC2)CCC(F)(F)F)c(C)c1 [Example 89]
Solution: > 6.00

Exercise: Output pKi of CCCN(Cc1cccc(F)c1)Cc1c(C(F)(F)F)nc2n1CCCN2c1c(C)cc(C)cc1Cl [Example 134]
Solution: > 6.00

Exercise: Give me measured pKi, please, for this compound: CCCN(Cc1c(C(F)(F)F)nc2n(-c3c(C)cc(C)cc3C)c3ncccc3n12)CC(F)(F)F [Example 222]
Solution: > 6.00

Exercise: Identify pKi associated with the compound CCCCN(CC)Cc1c(C(F)(F)F)nc2n1CCCN2c1c(C)cc(C)cc1C [Example 70]
Solution: > 6.00

Exercise: Give pKi for Cc1cc(C)c(-n2c(Cl)cn3c(CN4CCCC4Cc4ccccc4)c(C(F)(F)F)nc23)c(C)c1 (stereo not drawn) [Example 316]
Solution: > 6.00

Exercise: Tell me measured pKi for CCCN(Cc1c(C(F)(F)F)nc2n(-c3c(C)cc(C)cc3C)c3ncccc3n12)CC(F)(F)C(F)(F)F [Example 224] please.
Solution: > 6.00

Exercise: Report measured pKi; entry is C=CCN(CC=C)Cc1c(C(F)(F)F)nc2n(-c3c(C)cc(C)cc3C)c3ccccc3n12 [Example 160]
Solution: > 6.00
